species: Rattus norvegicus; test: Open TG-GATES - Regimen: Single; format: toxicity, organism-based, Sprague-Dawley; set-up: regimen Single, gender Male, age 6 weeks; details: in vivo, po, 300 mg/kg, 9 h, tissue Blood, route gavage, dose level Middle
# Plat per record follows
Give a bare numeral; the unit x10_4/uL is implied.

Examples with their reported Plat follow.
molecule="COC(=O)C1=C(C)NC(C)=C(C(=O)OC)C1c1ccccc1[N+](=O)[O-] [NIFEDIPINE]" readout_type=Plat recorded_number=124.2
molecule="O=C(OC[C@H]1O[C@@H](OC(=O)c2cc(O)c(O)c(OC(=O)c3cc(O)c(O)c(O)c3)c2)[C@H](OC(=O)c2cc(O)c(O)c(OC(=O)c3cc(O)c(O)c(O)c3)c2)[C@@H](OC(=O)c2cc(O)c(O)c(OC(=O)c3cc(O)c(O)c(O)c3)c2)[C@@H]1OC(=O)c1cc(O)c(O)c(OC(=O)c2cc(O)c(O)c(O)c2)c1)c1cc(O)c(O)c(OC(=O)c2cc(O)c(O)c(O)c2)c1 [TANNIC ACID]" readout_type=Plat recorded_number=122.2
molecule="CNC(=C[N+](=O)[O-])NCCSCc1ccc(CN(C)C)o1 [RANITIDINE]" readout_type=Plat recorded_number=116.8
molecule="CN/C(=N/CCSCc1nc[nH]c1C)NC#N [CIMETIDINE]" readout_type=Plat recorded_number=126.2

Q) Query (molecule): Cc1nnc2n1-c1ccc(Cl)cc1C(c1ccccc1Cl)=NC2 [TRIAZOLAM] ; field requested: Plat
A) 121.1
